# credit: patent EP3074389B1

Would you mind telling me the reported pKd of each entry?
target: BRD4 domain 2 (Homo sapiens); assay: Kd determination of inhibitors binding to BRD4 domain 2 (Epic label-free platform); settings: direct binding to immobilized BRD4 domain 2; tripling dilution series from 20µM; about 1hr equilibrium; rounded to whole number
Numbers only, as −log10 of the molar value.

>>> measuredresult("Cc1noc(C)c1-c1cc(S(=O)(=O)N[C@@H]2CCC[C@H]2C(=O)NCc2nccn2C)c2cccnc2c1")
5.17
>>> measuredresult("Cc1noc(C)c1-c1cc(S(=O)(=O)NC2(C(F)(F)F)CC2)c2cccnc2c1")
4.74
>>> measuredresult("Cc1noc(C)c1-c1cc(S(=O)(=O)NC2CCCC2)c2cc(N(C)C)c(=O)[nH]c2c1")
6.19
>>> measuredresult("Cc1noc(C)c1-c1cc(S(=O)(=O)NC2CCCC2)c2cc(NCC(C)(C)N)c(=O)[nH]c2c1")
6.20
>>> measuredresult("Cc1noc(C)c1-c1cc(S(=O)(=O)NC2CCCC2)c2ccc(C(F)F)nc2c1")
5.88

Provide the reported pKd of each entry below, same order.
1. CCOC(=O)N[C@H]1CCC[C@H]1NS(=O)(=O)c1cc(-c2c(C)noc2C)cc2ncccc12
2. Cc1noc(C)c1-c1cc(S(=O)(=O)NC2CCCC2)c2cc(-c3cnc(C)n3C)c(=O)[nH]c2c1
3. Cc1noc(C)c1-c1cc(S(=O)(=O)NC2(C)CCCC2)c2cccnc2c1
4. Cc1noc(C)c1-c1cc(S(=O)(=O)N[C@@H]2CCC[C@H]2O)c2ccc(=O)[nH]c2c1
5. Cc1noc(C)c1-c1cc(S(=O)(=O)NC2CCCC2)c2ccc(N)nc2c1

[5.10, 5.77, 5.67, 5.72, 5.96]

* * *

target: BRD4 domain 1 (Homo sapiens); assay: Kd determination of inhibitors binding to BRD4 domain 1 (Epic label-free platform); conditions: direct binding to immobilized BRD4 domain 1; tripling dilution series from 20µM; about 1hr equilibrium; rounded to whole number; read-out: Epic Kd BRD41
Would you mind telling me the reported pKd of each entry?
One number for each entry, as −log10 of the molar value.

Worked cases, pKd given:
>>> measuredresult("Cc1noc(C)c1-c1cc(S(=O)(=O)NC2CCCC2)c2cc(N3CCCCC3)c(=O)[nH]c2c1 [Compound 60]")
5.65
>>> measuredresult("COc1ccc2c(S(=O)(=O)NC3CCCC3)cc(-c3c(C)noc3C)cc2n1 [Compound 16]")
5.47
>>> measuredresult("Cc1noc(C)c1-c1cc(S(=O)(=O)NC2CCCC2)c2cc(C(N)=O)c(=O)[nH]c2c1 [Compound 69]")
5.14
>>> measuredresult("Cc1noc(C)c1-c1cc(S(=O)(=O)NCC2CC2)c2cccnc2c1 [Compound 15]")
5.03
>>> measuredresult("Cc1noc(C)c1-c1cc(S(=O)(=O)NC2CCCC2)c2cc(NC(C)(C)CO)c(=O)[nH]c2c1 [Compound 97]")
6.03
>>> measuredresult("CCOC(=O)N[C@H]1CCC[C@H]1NS(=O)(=O)c1cc(-c2c(C)noc2C)cc2ncccc12 [Compound 54]")
5.23
>>> measuredresult("Cc1noc(C)c1-c1cc(S(=O)(=O)NC2CCCC2)c2cc(NCC3CC3)c(=O)[nH]c2c1 [Compound 76]")
6.38
>>> measuredresult("Cc1noc(C)c1-c1cc(S(=O)(=O)NC2CC3CCC(C2)N3C)c2cccnc2c1 (stereo not shown) [Compound 40]")
4.80
>>> measuredresult("Cc1noc(C)c1-c1cc(S(=O)(=O)N[C@@H]2CCC[C@@H]2c2ccc(F)cc2)c2cccnc2c1 [Compound 13]")
5.00
>>> measuredresult("Cc1noc(C)c1-c1cc(S(=O)(=O)NC2CCCC2)c2cc(N3CCOCC3)c(=O)[nH]c2c1 [Compound 55]")
5.87

Provide the reported pKd of each entry below, same order.
1. Cc1noc(C)c1-c1cc(S(=O)(=O)NC2CCCC2)c2cc(-c3ncccn3)c(=O)[nH]c2c1 [Compound 37]
2. Cc1noc(C)c1-c1cc(S(=O)(=O)NC2CC2)c2cccnc2c1 [Compound 8]
3. Cc1noc(C)c1-c1cc(S(=O)(=O)NCC2CC(F)(F)C2)c2cccnc2c1 [Compound 11]
4. Cc1noc(C)c1-c1cc(S(=O)(=O)NC2CCCC2)c2cc(NCCCN)c(=O)[nH]c2c1 [Compound 94]

1: 5.68; 2: 5.40; 3: 4.89; 4: 6.13

* * *

biological target: BRD4 domain 1 (Homo sapiens); test: Kd determination of inhibitors binding to BRD4 domain 1 (Epic label-free platform); details: direct binding to immobilized BRD4 domain 1; tripling dilution series from 20µM; about 1hr equilibrium; rounded to whole number; read-out: Epic Kd BRD41
assayEndpoint: log10 of Kd (log10 of the value in nM)
For clarity, the numbers are log10 values of Kd expressed in nM.

Worked cases, log10 of Kd given:
>>> measuredresult("Cc1noc(C)c1-c1cc(S(=O)(=O)N[C@@H]2CCC[C@H]2C(=O)N2CCNCC2)c2cccnc2c1")
3.50
>>> measuredresult("COC[C@H]1CCC[C@H]1NS(=O)(=O)c1cc(-c2c(C)noc2C)cc2ncccc12")
4.16
>>> measuredresult("Cc1noc(C)c1-c1cc(S(=O)(=O)N[C@@H]2CCC[C@H]2NC(=O)OC(C)(C)C)c2cccnc2c1")
4.16
>>> measuredresult("Cc1noc(C)c1-c1cc(S(=O)(=O)NC2CCCC2)c2cc(NC(C)C)c(=O)[nH]c2c1")
2.95
>>> measuredresult("Cc1noc(C)c1-c1cc(S(=O)(=O)NC2CCCC2)c2cc(NCCCN(C)C)c(=O)[nH]c2c1")
2.90

Provide the reported log10 of Kd of each entry below, same order.
1. Cc1noc(C)c1-c1cc(S(=O)(=O)NC2CCCC2)c2cc(N3CCN(C)CC3)c(=O)[nH]c2c1
2. Cc1noc(C)c1-c1cc(S(=O)(=O)NC2CCCC2)c2cc(NCC(F)F)c(=O)[nH]c2c1
3. Cc1noc(C)c1-c1cc(S(=O)(=O)NC2CCCC2)c2cc(-c3cnc(C)n3C)c(=O)[nH]c2c1
4. Cc1noc(C)c1-c1cc(S(=O)(=O)NC2CCCC2)c2cc(NCc3cccnc3)c(=O)[nH]c2c1
5. Cc1noc(C)c1-c1cc(S(=O)(=O)NC2CCCC2)c2ccc(N3CCNCC3)nc2c1
6. CNc1cc2c(S(=O)(=O)NC3CCCC3)cc(-c3c(C)noc3C)cc2[nH]c1=O
7. Cc1noc(C)c1-c1cc(S(=O)(=O)NC2CCCC2)c2ccc(OCC3CC3)nc2c1
8. Cc1noc(C)c1-c1cc(S(=O)(=O)NC2CCCC2)c2cc(N(C)C)c(=O)[nH]c2c1

1: 2.99; 2: 3.13; 3: 3.81; 4: 2.65; 5: 2.90; 6: 2.93; 7: 3.32; 8: 3.01

Provide the reported log10 of Kd of each entry below, same order.
1. Cc1noc(C)c1-c1cc(S(=O)(=O)N[C@H]2CCC[C@H]2O)c2cccnc2c1
2. COCCNc1cc2c(S(=O)(=O)N[C@@H]3CCC[C@H]3O)cc(-c3c(C)noc3C)cc2[nH]c1=O
3. Cc1noc(C)c1-c1cc(S(=O)(=O)NC2CCCC2)c2cc(NCC(O)CO)c(=O)[nH]c2c1 (centres unmarked)
4. Cc1noc(C)c1-c1cc(S(=O)(=O)NC2CC2)c2ccc(=O)[nH]c2c1

1: 4.10; 2: 2.68; 3: 2.98; 4: 4.14

Provide the reported log10 of Kd of each entry below, same order.
1. Cc1noc(C)c1-c1cc(S(=O)(=O)N[C@H]2CC[C@H](O)CC2)c2cccnc2c1
2. Cc1noc(C)c1-c1cc(S(=O)(=O)NC2CCCC2)c2ccc(Cl)nc2c1
3. Cc1noc(C)c1-c1cc(S(=O)(=O)N[C@@H]2C[C@H]2c2ccccc2)c2cccnc2c1

1: 4.02; 2: 3.10; 3: 4.20

Provide the reported log10 of Kd of each entry below, same order.
1. Cc1noc(C)c1-c1cc(S(=O)(=O)NC2CCCC2)c2cc(C#N)c(=O)[nH]c2c1
2. Cc1noc(C)c1-c1cc(S(=O)(=O)NC2CCCC2)c2cc(-c3ccc(F)cc3)c(=O)[nH]c2c1

2.94
2.54

* * *

target: BRD4 domain 2 (Homo sapiens, UniProt O60885); assay: Kd determination of inhibitors binding to BRD4 domain 2 (Epic label-free platform); settings: direct binding to immobilized BRD4 domain 2; tripling dilution series from 20µM; about 1hr equilibrium; rounded to whole number
pKd: −log10 of the molar value.
Would you please tag the item Fulfilled when its pKd is 6 or above, and Not fulfilled when it is below?

>>> group("COc1ccc2c(S(=O)(=O)NC3CCCC3)cc(-c3c(C)noc3C)cc2n1")
"Not fulfilled"
>>> group("Cc1noc(C)c1-c1cc(S(=O)(=O)NC2CCCC2)c2cc(N)c(=O)[nH]c2c1")
"Fulfilled"

Determine whether measured pKd meets or exceeds 6 for "Cc1noc(C)c1-c1cc(S(=O)(=O)NC2CC2)c2ccc(=O)[nH]c2c1"
Not fulfilled

Determine whether measured pKd meets or exceeds 6 for "Cc1noc(C)c1-c1cc(S(=O)(=O)N[C@@H]2CCC[C@@H]2C(=O)N2CCNCC2)c2cccnc2c1"
Not fulfilled

Determine whether measured pKd meets or exceeds 6 for "Cc1noc(C)c1-c1cc(S(=O)(=O)NC2CCCC2)c2cc(N3CCNCC3)c(=O)[nH]c2c1"
Fulfilled

Determine whether measured pKd meets or exceeds 6 for "Cc1noc(C)c1-c1cc(S(=O)(=O)NC2CCCC2)c2cc(NC3CCN(C)CC3)c(=O)[nH]c2c1"
Fulfilled

Determine whether measured pKd meets or exceeds 6 for "Cc1noc(C)c1-c1cc(S(=O)(=O)NC2CCCC2)c2cc(NC3COC3)c(=O)[nH]c2c1"
Fulfilled
